system: SF-539; assay: NCI tumour cell line growth inhibition, 48 h
Calls of active or inactive are those of the source. No stated cut-off is given here; in the data, active = GI50 up to about 1.1 µM and inactive = higher. Where a SMILES comes first, the peptide text is derived from it. The star is where a group is joined. Boc = CC(C)(C)OC(=O)*; OSu = O=C1CCC(=O)N1O*
Classes used: active, inactive

{"columns": ["Compound", "Assigned Class"],
 "data": [
  ["Cc1cccc(NC(=S)N/N=C(/c2ccccc2)c2ccccn2)c1", "inactive"],
  ["Fc1cc(-c2cc(-c3ccc4c(c3)OCO4)n[nH]2)c(Cl)cc1Cl", "inactive"],
  ["COc1ccc(C2C3=C(COC3=O)OC(C)(C)Oc3cc4c(cc32)OCO4)cc1OC (centres undefined)", "inactive"],
  ["C=C(C)[C@@]1(OC(=O)c2cc([N+](=O)[O-])cc([N+](=O)[O-])c2)C[C@@H]2CCCC[C@@H]21", "inactive"],
  ["COc1cc(C=O)c(-c2cc3c(cc2C2(C)OCCS2)OCO3)c(OC)c1OC (centres undefined)", "inactive"],
  ["O=C1O[C@@H](c2ccccc2)C[C@H]1CN1CCOCC1", "inactive"],
  ["O=C1NC(c2cccc(OCc3ccccc3)c2)Nc2ccccc21 (centres undefined)", "active"],
  ["CN(C)C(=S)Nc1nnc(Nc2ccccc2)s1", "inactive"],
  ["CN(C)c1ccc(/C=N/c2ccc(-c3nc4ccccc4o3)cc2)cc1", "inactive"],
  ["CCOC(=O)C[n+]1ccc2c([nH]c3cc(OC)ccc32)c1C", "inactive"],
  ["C=C1C(=O)OC2/C=C(/C)C3CC(O)C(C)(CC(OC(=O)/C(C)=C/C)C12)O3 (centres undefined)", "inactive"],
  ["COC(CN(C)C(=O)C(C)NC(=O)c1ccccc1)OC (centres undefined)", "inactive"],
  ["CCOC(=O)CC1=N/C(=N/C(=N)N[N+](=O)[O-])SC1", "inactive"],
  ["C/C(CC(=O)Nc1cccc(Cl)c1C)=N\\NC(=O)c1ccncc1", "inactive"],
  ["O=c1oc2ccccc2n1CCN1CCCCC1", "inactive"],
  ["COC1=CC(=O)c2c(cc(COP(N)(=O)N(CCBr)CCBr)n2C)C1=O (centres undefined)", "active"],
  ["CCCCN(Cc1ccccc1)/C(=N/C#N)N(Cc1ccccc1)Cc1ccccc1", "inactive"],
  ["Cn1cc(-c2ccc(CCOC3CCCCO3)cc2)c2c(C#N)cccc21 (centres undefined)", "inactive"],
  ["CCCCCN(CCCCC)C(=O)[C@@H](CCC(=O)OCc1ccccc1)NC(=O)c1cc2ccccc2[nH]1", "inactive"],
  ["CC(C)(S)C(N)C(=O)O (centres undefined)", "inactive"],
  ["CSCSCC(N)CO.Cc1[nH]c(=O)[nH]c(=O)c1/C=C/C(=O)O", "inactive"],
  ["COc1ccc2c(c1)c(=O)c1c(NCCN(C)C)ccc3c(=O)n(CCN(C)C)c(=O)n2c31", "active"],
  ["CN(C)c1ccc2nc3c(ccc4ccccc43)[o+]c2c1", "inactive"],
  ["COc1cc2c(c(OC)c1OC)-c1ccc(SC)c(=O)cc1[C@@H](NC(=O)c1cccc([N+](=O)[O-])c1)CC2", "active"],
  ["C[N+](C)([O-])CCCNc1c2ccccc2nc2cccc([N+](=O)[O-])c12", "active"],
  ["CC(NC(=O)C(NC(=O)OC(C)(C)C)C(C)C)C(=O)NCC(=O)ON1C(=O)CCC1=O (stereo not drawn) (Boc-Val-Ala-Gly-OSu; configuration not given here)", "inactive"],
  ["O=c1c(F)cn2c(=O)n1CCCCCCCn1c(=O)c(F)cn(c1=O)CCCCCCC2", "inactive"],
  ["CC(=O)C1(O)CCC2(O)C3(O)CC=C4CC(O)CCC4(C)C3CC(OC(=O)c3ccc(O)cc3)C12C (centres undefined)", "inactive"],
  ["NC(=O)N/N=C(\\Cc1cc(=O)oc2cc(O)ccc12)C(=O)Nc1ccccc1C(N)=O", "inactive"],
  ["CC(=O)Nc1ccc(-c2nnc(SCC(=O)Nc3ccccc3C)o2)cc1", "inactive"],
  ["CC1(Br)CC2OC3(Br)C=CC(C)(O)C2(CC1=O)C3(C)C (centres undefined)", "inactive"],
  ["C1=CC(N(c2ccccc2)C2C=CCCC2)CCC1 (centres undefined)", "inactive"],
  ["COc1cc(/C=c2/c3ccccc3n3c2cc(-c2ccccc2)[n+]3C)cc(OC)c1OC", "inactive"],
  ["COC(=O)/C=C1/OC(c2ccc(C)cc2)=C(Cl)C1=O", "inactive"],
  ["CC(C)C(=O)Nc1nc2c(ncn2C2OC(CO)C(O)C2O)c(=O)[nH]1 (centres undefined)", "inactive"],
  ["COC1(C)CNCC(C)(C)NC(=O)C(C)(OC)CNCC(C)(C)NC1=O (centres undefined)", "inactive"],
  ["Nc1ccccc1OCc1cc(=O)c(OCc2ccccc2)co1", "inactive"],
  ["c1ccc(COc2ccc(C[P+](c3ccccc3)(c3ccccc3)c3ccccc3)cc2)cc1", "active"],
  ["CCOC(=O)c1sc2nc(SC)nc(Nc3ccc(OC)c(OC)c3)c2c1N", "inactive"]
]}
